Field: hERG current change (%, negative = inhibition) at 10uM. Provide a value for each of the compounds that follow.
- system name: human ether-à-go-go-related gene (hERG) potassium channel (human, UniProt Q12809);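 further: peak tail current of the secondary pulse compared with the same well before compound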
- Sequence (Q12809 whole entry, looked up): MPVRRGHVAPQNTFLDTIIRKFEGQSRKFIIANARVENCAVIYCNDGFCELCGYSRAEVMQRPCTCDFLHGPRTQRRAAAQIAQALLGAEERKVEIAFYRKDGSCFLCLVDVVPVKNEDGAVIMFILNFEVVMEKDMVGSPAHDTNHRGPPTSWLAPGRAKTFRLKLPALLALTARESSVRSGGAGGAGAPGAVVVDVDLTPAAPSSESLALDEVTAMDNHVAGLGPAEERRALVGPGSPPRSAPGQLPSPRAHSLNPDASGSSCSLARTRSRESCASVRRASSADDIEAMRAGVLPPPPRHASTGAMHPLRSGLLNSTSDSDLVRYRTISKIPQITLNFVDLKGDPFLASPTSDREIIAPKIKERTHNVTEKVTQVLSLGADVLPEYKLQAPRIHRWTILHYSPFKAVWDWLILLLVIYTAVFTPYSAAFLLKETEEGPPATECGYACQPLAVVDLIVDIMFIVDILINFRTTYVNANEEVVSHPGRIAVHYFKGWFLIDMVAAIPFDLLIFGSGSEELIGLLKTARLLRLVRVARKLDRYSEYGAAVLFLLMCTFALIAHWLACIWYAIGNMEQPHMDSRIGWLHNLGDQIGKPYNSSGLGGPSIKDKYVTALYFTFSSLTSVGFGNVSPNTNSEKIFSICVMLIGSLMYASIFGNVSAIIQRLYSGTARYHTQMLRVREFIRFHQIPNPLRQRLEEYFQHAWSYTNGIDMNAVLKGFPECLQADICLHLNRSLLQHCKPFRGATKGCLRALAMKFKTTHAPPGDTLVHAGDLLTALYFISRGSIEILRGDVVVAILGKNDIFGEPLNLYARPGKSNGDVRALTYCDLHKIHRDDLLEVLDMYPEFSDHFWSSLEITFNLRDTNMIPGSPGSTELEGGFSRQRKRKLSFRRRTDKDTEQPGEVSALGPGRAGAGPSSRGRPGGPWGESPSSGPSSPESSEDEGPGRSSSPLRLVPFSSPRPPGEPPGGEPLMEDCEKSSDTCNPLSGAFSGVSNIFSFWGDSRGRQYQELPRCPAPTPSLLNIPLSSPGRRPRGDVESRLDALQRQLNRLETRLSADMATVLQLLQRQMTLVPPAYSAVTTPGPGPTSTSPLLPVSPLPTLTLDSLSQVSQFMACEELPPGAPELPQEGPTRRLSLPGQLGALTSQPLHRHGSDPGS
- assay: primary screen, population patch clamp on CHO cells stably expressing hERG; higher = less effect of the substance
The whole screen tested about 310,000 compounds, of which about 14,000 (4.5%) showed an effect of 50% or more. The effect is printed as a negative number. For the sample, strong results were picked, then their nearest neighbours and some compounds at random.
Give bare numbers, in %.

Hey, quick one: what's hERG current change (%, negative = inhibition) at 10uM for each of these?
1. COc1cc2c(cc1OC)CN(C(=S)Nc1ccc(OC(F)F)cc1)CC2
2. O=C(Nc1ncc(Cc2ccccc2)s1)C1=NCCN1
3. COc1cccc(-c2ccc(NC(=O)C3CCCN(Cc4cnc(N(C)C)s4)C3)cc2)c1 (centres unmarked)
4. COc1cccc(C(=O)C2CCCN(Cc3cnn(C(C)C)c3)C2)c1 (centres unmarked)

[-38.8, 6.81, 8.97, -43.6]

###

- system name: human ether-à-go-go-related gene (hERG) potassium channel (human);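 further: peak tail current of the secondary pulse compared with the same well before compound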
- assay: primary screen, population patch clamp on CHO cells stably expressing hERG; higher = less effect of the substance
About 14,000 (4.5%) of roughly 310,000 compounds showed an effect of 50% or more. Effects have a minus sign here. The entries come from a sample that favours strong results as a whole.
property label: hERG current change (%, negative = inhibition) at 10uM (%)
Numbers only, in %.

The following molecules each have a reported value; give each one's hERG current change (%, negative = inhibition) at 10uM.
1. CCCc1nnc(NC(=O)c2cc(OC)cc(OC)c2)s1
2. CCCCCn1c(N)c(-c2nc3ccccc3s2)c2c([N+](=O)[O-])nn(CC)c(=O)c21
3. Cc1nc(SCC(=O)NC2CCS(=O)(=O)C2)c2c(C)c(C)sc2n1 (stereo not shown)
4. CCOC(=O)CN(C(=O)CSc1nnc(-c2ccc(OC)c(OC)c2)o1)c1ccc(F)cc1
5. CN(CC(=O)NC1CCCCC1)S(=O)(=O)c1ccc(Br)s1
6. CSc1ccc(/C=N/Nc2ccc(Cl)c(C(=O)O)c2)cc1

-4.25
5.78
6.15
-49.6
20.1
6.73

Required: hERG current change (%, negative = inhibition) at 10uM, one value per molecule below.
1. Cc1[nH]c2ccccc2c1/C=N/NC(=S)NC(C)C
2. CN(C(=O)CSc1nc2c(cnn2-c2ccccc2)c(=O)[nH]1)C1CCS(=O)(=O)C1 (stereo not shown)
3. O=S(=O)(Cc1ccccc1Cl)N1CCCCC1
4. Cc1c(C(C)C)c(=O)n(-c2ccc(S(=O)(=O)N3CCOCC3)cc2)n1C

1: 12.1; 2: 16.1; 3: 1.5; 4: 17.4

###

- system name: human ether-à-go-go-related gene (hERG) potassium channel (human, UniProt Q12809);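 further: peak tail current of the secondary pulse compared with the same well before compound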
- assay: primary screen, population patch clamp on CHO cells stably expressing hERG; higher = less effect of the substance
Among all 310,000 compounds or so, about 14,000 (4.5%) showed an effect of 50% or more. The effect is printed as a negative number. The full list was thinned out, with strong results kept by preference.
For each record, write down the corresponding hERG current change (%, negative = inhibition) at 10uM.
Numbers only, in %.

Some molecules with recorded hERG current change (%, negative = inhibition) at 10uM:
{"columns": ["molecule", "unit spec", "numeric result"],
 "data": [
  ["CCc1ccc(-c2cc(C)no2)cc1S(=O)(=O)NCc1ccccc1OC", "%", -15.8],
  ["O=C(Nc1nc(N2C(=O)c3ccccc3C2=O)n(-c2ccccc2)n1)c1ccc(Cl)cc1", "%", -7.9],
  ["CCC(C)NCCOCCOc1ccc(Cl)cc1Br.O=C(O)C(=O)O (stereo not shown)", "%", -51.1],
  ["CCC(C)NCCCOc1cc(Cl)ccc1Cl.O=C(O)C(=O)O (stereo not shown)", "%", -42.3],
  ["CC(=O)C1=C(C)NC(SCC(=O)c2ccc(Cl)c(Cl)c2)=C(C#N)C1c1ccco1 (stereo not shown)", "%", 5.27],
  ["COc1ccc(CNS(=O)(=O)c2cc(-c3cc(C)no3)ccc2OC)cc1OC", "%", 2.57]
]}

// for each molecule below, give its hERG current change (%, negative = inhibition) at 10uM
1. CCN(C(=O)COc1cccnc1[N+](=O)[O-])C1CCS(=O)(=O)C1 (stereo not shown)
2. C=CCc1cc(Cl)ccc1OCCCNC(C)CC.O=C(O)C(=O)O (stereo not shown)
3. COc1ccc(-c2cc(C)no2)cc1S(=O)(=O)NCCCN1CCCCCC1

1: -0.18; 2: -55.7; 3: -17.4

Fill in hERG current change (%, negative = inhibition) at 10uM for each of the 3 molecules listed.
1. CNCCOc1ccc(Cl)c(Cl)c1.O=C(O)C(=O)O
2. N#C/C(=C\c1ccc(F)c(Cl)c1)S(=O)(=O)c1ccccn1
3. COc1ccc(C(C(=O)NC2CCCCC2)N(C(=O)c2ccco2)c2ccc(-n3cnnn3)c(C)c2)cc1 (stereo not shown)

1: 12.8; 2: -6.64; 3: 8.93

Working through the 5 molecules below one at a time, give hERG current change (%, negative = inhibition) at 10uM for each.
1. COc1ccccc1CN1CCC(CNS(=O)(=O)c2cc(-c3onc(C)c3C)ccc2OC)CC1
2. CCOc1ccccc1CNS(=O)(=O)c1cc(-c2cc(C)no2)ccc1OC
3. Cc1cc(-c2ccc(C)c(S(=O)(=O)NCC3CCN(Cc4cccc(F)c4)CC3)c2)on1
4. CCOC(=O)C1(C)NC(c2ccco2)C2C(=O)N(c3ccccc3)C(=O)C21 (stereo not shown)
5. CCOC(=O)N1CCN(S(=O)(=O)c2c(C)cc(C)cc2C)CC1

1. -76.7
2. -18.4
3. -39.1
4. 10.4
5. -5.61

Please report hERG current change (%, negative = inhibition) at 10uM for every entry that follows.
1. CCN1CCN(C(c2cccs2)C(C)NC(=S)NC2CCCCC2)CC1 (stereo not shown)
2. O=C(NCCN1CCOCC1)c1cccc(S(=O)(=O)N(Cc2ccccc2)c2ccccc2)c1
3. O=[N+]([O-])c1ccc(O)c(-c2nn[nH]n2)c1
4. Cc1c(OC(C)C(=O)NCCCN2CCOCC2)ccc2c1oc(=O)c1ccccc12 (stereo not shown)
5. CN(Cc1cccc(Cl)c1)C(=O)C1CCN(C(=O)Nc2ccccc2)CC1
6. CCCCN(C(=O)c1ccc2c(c1)S(=O)(=O)N=C1CCCCCN12)c1c(N)n(CCCC)c(=O)[nH]c1=O
7. CCC(C)NCCCOc1ccc(Cl)cc1C(C)(C)C.O=C(O)C(=O)O (stereo not shown)
8. CC(NC(=S)NC1CCCCC1)C(c1cccs1)N1CCOCC1 (stereo not shown)

1: -60.8; 2: -19.3; 3: 1.52; 4: 6.19; 5: -55.9; 6: 8.23; 7: -8.48; 8: -0.732

Give one value of hERG current change (%, negative = inhibition) at 10uM per listed molecule.
1. CC(NC(=O)NC1CCCCC1)C(c1cccs1)N1CCN(C)CC1 (stereo not shown)
2. Cc1ccc(-n2nc3c(=O)n(CC(=O)NCCc4ccc(Cl)cc4)nc(C)c3c2C)cc1
3. CCC(C)(C)NC(=O)Cc1ccccc1OC
4. CC(C)NCCOCCOc1ccc(Cl)cc1Br.O=C(O)C(=O)O
5. Cc1ccc(C(=O)NCc2ccccn2)o1
6. COc1ccc(CN(C)C(=O)C2CCN(C(=O)Nc3ccccc3)CC2)cc1

-8.03
-10.2
23
-32.2
4.94
-16.3

For every listed record, write down its hERG current change (%, negative = inhibition) at 10uM.
1. COc1ccc(-c2cc(C)no2)cc1S(=O)(=O)NCC1CCN(Cc2cc(C)ccc2C)CC1
2. Cc1cc(NC(=O)c2cc(CC(C)C)on2)no1
3. CN1C2CCC1CC(OC(c1ccccc1)c1ccccc1N)C2 (stereo not shown)
4. Cc1cc(OCCOCCNC(C)C)cc(C)c1Cl.O=C(O)C(=O)O
5. COc1ccccc1CNS(=O)(=O)c1cc(C)ccc1OC
6. CCC(C)NCCOCCOc1ccc(C)cc1Br.O=C(O)C(=O)O (stereo not shown)
7. CC(NC(=O)NC1CCCCC1)C(c1cccs1)N1CCN(Cc2ccccc2)CC1 (stereo not shown)

-72
7.66
-68.5
-47.3
9.32
-41
-56.7

Could you tell me hERG current change (%, negative = inhibition) at 10uM for each of these molecules? They are listed below.
1. Cc1cc(-c2ccc(C)c(S(=O)(=O)NCC3CCN(Cc4ccc(F)cc4)CC3)c2)on1
2. CC(NC(=O)NC1CCCCC1)C(c1cccs1)N1CCN(c2ccccc2)CC1 (stereo not shown)

1. -66.2
2. -48.6

###

- system name: human ether-à-go-go-related gene (hERG) potassium channel (human, UniProt Q12809);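 further: peak tail current of the secondary pulse compared with the same well before compound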
- assay: primary screen, population patch clamp on CHO cells stably expressing hERG; higher = less effect of the substance
The campaign covered roughly 310,000 compounds. About 14,000 (4.5%) showed an effect of 50% or more. The effect is printed as a negative number. For the sample, strong results were picked, then their nearest neighbours and some compounds at random.
property label: hERG current change (%, negative = inhibition) at 10uM (%)
One number for each entry, in %.

A selection of reference data follows.
{"columns": ["compound", "numeric result"],
 "data": [
  ["CN(CC(=O)Nc1c(Cl)cccc1Cl)C(=O)C1CCN(C(=O)Nc2ccccc2)CC1", 11.5],
  ["COc1ccc(Cl)cc1NC(=O)CSc1nnc(-c2ccncc2)n1CC1CCCO1 (centres unmarked)", -28.2],
  ["CSc1ccccc1NC(=O)CN(C)C(=O)C1CCN(C(=O)Nc2ccccc2)CC1", -11.4],
  ["c1ccc(CSc2nnc3ccc(-c4cccs4)nn23)nc1", 3.64],
  ["CSc1ccc(CN(C)C(=O)C2CCN(C(=O)Nc3ccccc3)CC2)cc1", -67.4]
]}

For every item in the list below, what is its measured hERG current change (%, negative = inhibition) at 10uM?
1. COc1ccc(CN(C)C(=O)C2CCN(C(=O)Nc3ccccc3)CC2)cc1OC
2. COc1nc(NC(C)(C)C)nc(Oc2ccc(=O)n(C)n2)n1
3. COc1ccc(C(C(=O)NC2CCCC2)N(C(=O)c2ccoc2C)c2ccc(C)c(C)c2)cc1 (centres unmarked)

-1.53
16.8
15.1
